Provenance of the data: PubChem BioAssay (NCI)

System: LOX IMVI melanoma
protocol_text: NCI tumour cell line growth inhibition, 48 h
observation_type: GI50

- compound: "C[C@@H](c1ccc2nccn2c1)n1nnc2ncc(-c3cnn(C)c3)nc21"
  result: "> 100 µM"
- compound: "COc1cc(-c2cc(C(=O)N3CCN(C(=O)c4ccccc4NCc4ccco4)CC3)nc3cc(-c4ccccc4)nn23)cc(OC)c1OC"
  result: "4.01 µM"
- compound: "COc1cccc(NC(=O)c2sc3nc4c(cc3c2N)CCCC4)c1"
  result: "0.729 µM"
- compound: "COC(=O)[C@]12CC[C@@H](C)[C@H](C)[C@@H]1C1=CC[C@@H]3[C@@]4(C)CC(=O)[C@H](O)[C@@]5(C)COC(=C45)C[C@@]3(C)[C@]1(C)CC2"
  result: "17 µM"
- compound: "COc1ccc(N(C)c2nc(C)nc3ccccc23)cc1"
  result: "< 0.01 µM"

// each compound listed below needs its GI50
1. CCOC(=O)c1cnc(SCc2ccc(Cl)c(Cl)c2)nc1N1CC1
2. Cn1cc(-c2ccc(=O)n(Cc3cccc(-c4ncc(OCCN5CCOCC5)cn4)c3)n2)cn1
3. O=C(CCCc1c[nH]c2ccccc12)NC1CC(=O)c2c(Br)sc(Br)c21 (centres undefined)
4. Nc1ccn(C=C=CCO)c(=O)n1

[out]
1 µM
> 100 µM
1.9 µM
> 1000 µM

* * *

For each of the compounds below, state its TGI.
Test system: NCI/ADR-RES ovarian
protocol_text: NCI tumour cell line growth inhibition, 48 h

- compound: "CSCCC(NCc1c(O)ccc2ccc(=O)oc12)C(=O)O (stereo unspecified)"
  tested_on: "NCI/ADR-RES ovarian"
  TGI: "> 100 µM"
- compound: "CC(=O)c1ccc(Nc2cc(-n3ccnc3)nc3ccccc23)cc1"
  tested_on: "NCI/ADR-RES ovarian"
  TGI: "> 100 µM"
- compound: "COC(=O)[C@@H]1C=C[C@@H](C#N)n2c(=O)n(-c3ccccc3)c(=O)n21"
  tested_on: "NCI/ADR-RES ovarian"
  TGI: "68 µM"

Give measured TGI for every item shown.
1. O=C1c2ccccc2-c2c1c1ccccc1c(=O)n2CCO
2. COc1cc2c(cc1OC)C1Cc3ccccc3CCN1CC2 (stereo unspecified)
3. Cc1cccc(/C=N/NC(=S)NCc2ccccn2)n1

[out]
1. > 100 µM
2. > 100 µM
3. > 75.4 µM

* * *

Test system: PC-3 prostate
protocol_text: NCI tumour cell line growth inhibition, 48 h
For each of the compounds below, state its GI50.

- compound: "C1CCC([PH+](C2CCCCC2)C2CCCCC2[PH+](C2CCCCC2)C2CCCCC2)CC1.[Au].[CH-]1CCCCC1C1CCCC[N-]1 (centres undefined)"
  tested_on: "PC-3 prostate"
  GI50: "0.249 µM"
- compound: "O=C1C=C[C@]2(C[C@@H](c3cccc(C(F)(F)F)c3)O[C@@H](c3cccc(C(F)(F)F)c3)O2)O1"
  tested_on: "PC-3 prostate"
  GI50: "2.4 µM"
- compound: "COC(=O)[C@]12CC[C@@H](C)[C@H](C)[C@@H]1C1=CC[C@@H]3[C@@]4(C)CC(=O)[C@H](O)[C@@]5(C)COC(=C45)C[C@@]3(C)[C@]1(C)CC2"
  tested_on: "PC-3 prostate"
  GI50: "16.9 µM"

Proceed to the following item.
[in] Please report the recorded GI50 for CCCCCCCCCCCCCCCCCCNC(=O)[C@H]1CSC(c2ccc(OC)c(F)c2)N1 (some centres undefined) .
[out] 6.09 µM

* * *

Test system: UACC-257 melanoma
protocol_text: NCI tumour cell line growth inhibition, 48 h
For each of the molecules below, state its TGI.
One number for each entry, in µM.

- molecule: "CC(C)(C)c1cc(C(=O)/C=C/c2ccc(O)c(O)c2O)cc(C(C)(C)C)c1O"
  TGI [µM]: 10.6

State recorded TGI for all listed molecules.
1. Cc1ccc(S(=O)(=O)NC(CCC(=O)Nc2ccc(Cl)cc2)C(=O)Nc2ccc(Cl)cc2)cc1 (stereo unspecified)
2. COc1ccc(/C=C2\CN(C(=O)CCN3CCC(=NO)CC3)C/C(=C\c3ccc(OC)cc3)C2=O)cc1
3. CCN(CC)CCN1CCNc2c3cc(OC)ccc3nc3c([N+](=O)[O-])ccc1c23
4. CC[C@@H]1CN2CCC1C[C@@H]2C(O)c1ccnc2ccc(OCCN3CCN(CCOc4ccc5nccc(C(O)[C@@H]6C[C@@H]7CCN6C[C@@H]7CC)c5c4)CC3)cc12 (stereo partly specified)
5. COc1cc(O)c(C(=O)/C=C/c2ccccc2)c(OC)c1
6. Cn1ncc2cc3c(Nc4ccc(Cl)cc4)cccc3nc21

[out]
[7.5, 7.57, 5.7, 32.1, 23.6, 38.3]

Dear colleague, could you send me TGI for each of the items below? Thanks.
1. O=C1c2cc3c(cc2-c2c1c1cc(Cl)c(Cl)cc1c(=O)n2CCCn1ccnc1)OCO3
2. C1CCC([PH+](C2CCCCC2)C2CCCCC2[PH+](C2CCCCC2)C2CCCCC2)CC1.[Au].[CH-]1CCCCC1C1CCCC[N-]1 (stereo unspecified)
3. COc1cc([C@@H]2c3cc4c(cc3[C@H](OC3OC5COC(C(C)C)OC5C(O)C3O)C3COC(=O)[C@@H]32)OCO4)cc(OC)c1O (stereo partly specified)

[out]
[1.31, 2.24, 22.3]

Batch: TGI for all items listed.
1. OB([O][Hg][c]1ccccc1)[O][Hg][c]1ccccc1
2. COC(=O)[C@]12CC[C@@H](C)[C@H](C)[C@@H]1C1=CC[C@@H]3[C@@]4(C)CC(=O)[C@H](O)[C@@]5(C)COC(=C45)C[C@@]3(C)[C@]1(C)CC2
3. O/N=c1/ccn(O)c2ccccc12
4. CC(CC(=O)CO[C@H]1[C@H](O)[C@@H](O)[C@@H](O)[C@@H]2NC(=O)c3c(cc4c(c3O)OCO4)[C@H]21)OC1OC(CO)C(O)C(O)C1O (stereo partly specified)
5. NS(=O)(=O)c1ccc(NC(=O)c2cc([N+](=O)[O-])cc([N+](=O)[O-])c2)cc1

[out]
1: 1.14; 2: 33.4; 3: 21; 4: 6.19; 5: 32

Look up TGI for the entries below, preserving their order.
1. O/N=C1/C(=C/c2ccc(F)cc2)CCCC1C(NO)c1ccc(F)cc1 (stereo unspecified)
2. O=S(=O)(c1ccc(NC(=S)N/N=C/c2ccccc2O)cc1)N1CCCCC1

[out]
64.5
14.5

* * *

Give measured TGI for each item. Keep answers brief.
Tested on: HT29 colon
protocol_text: NCI tumour cell line growth inhibition, 48 h

- compound_structure: "CC1=COC(=O)c2ccccc2N1"
  tested_on: "HT29 colon"
  observation_type: "TGI"
  result: "> 100 µM"
- compound_structure: "CCN(CC)CCNC(=O)c1ccc([N+](=O)[O-])cc1OC"
  tested_on: "HT29 colon"
  observation_type: "TGI"
  result: "> 100 µM"
- compound_structure: "O=[N+]([O-])c1ccc(N/N=C\\c2cc(Cl)ccc2O)nc1"
  tested_on: "HT29 colon"
  observation_type: "TGI"
  result: "> 100 µM"
- compound_structure: "O=C1C=C[C@]2(C[C@@H](c3cccc(C(F)(F)F)c3)O[C@@H](c3cccc(C(F)(F)F)c3)O2)O1"
  tested_on: "HT29 colon"
  observation_type: "TGI"
  result: "5.52 µM"
- compound_structure: "Cc1ccc(S(=O)(=O)N2CCCSCCSCCCSCC2)cc1"
  tested_on: "HT29 colon"
  observation_type: "TGI"
  result: "> 100 µM"

[in] Any idea what its TGI is? The compound is "Nc1ccn(C=C=CCO)c(=O)n1"
[out] > 1000 µM

* * *

Would you mind telling me the reported TGI of each entry?
Tested on: OVCAR-3 ovarian
protocol_text: NCI tumour cell line growth inhibition, 48 h

- compound: "N#Cc1cccc(C2ON=C(c3ccc([N+](=O)[O-])cc3)N2C23CC4CC(CC(C4)C2)C3)c1 (centres undefined)"
  TGI: "> 100 µM"

Field: TGI. Fill in for each record below.
1. C[C@@H](c1ccc2nccn2c1)n1nnc2ncc(-c3cnn(C)c3)nc21
2. CCOC(=O)N1CCN(Cc2cc(=O)n3cc(C)ccc3n2)CC1
3. Clc1ccccc1/C=C/c1nsc(/C=C/c2ccccc2Cl)n1
4. COc1cc(C2C(Cl)C(=O)N2n2cnc3ccccc3c2=O)cc(OC)c1OC (centres undefined)

[out]
1: > 100 µM; 2: > 100 µM; 3: > 100 µM; 4: > 100 µM

Field: TGI. Fill in for each record below.
1. CCOC(=O)Cc1c(Cc2[nH]c(C(=O)OCc3ccccc3)c(CC(=O)OCC)c2CC(=O)OCC)[nH]c(C(=O)OCc2ccccc2)c1CC(=O)OCC
2. CC(=O)[CH-]C(=O)c1ccccc1.CC(=O)[CH-]C(=O)c1ccccc1.CCN(CC)CC[O-].CCN(CC)CC[O-].Cl.[Ti+4]
3. O=S(=O)(c1ccc(NC(=S)N/N=C/c2ccccc2O)cc1)N1CCCCC1
4. Oc1c(C2=NNC(c3cccs3)C2)ccc2ccccc12 (centres undefined)

[out]
1: > 100 µM; 2: > 100 µM; 3: 6.34 µM; 4: 43.5 µM
